All figures here come from patent US20110293610A1.

TARGET ENTITY: T1, TNF-beta (human, UniProt P01374 35-205)
T1 construct: also called TNFβ; Tumour Necrosis Factor-beta
T1 sequence (looked up): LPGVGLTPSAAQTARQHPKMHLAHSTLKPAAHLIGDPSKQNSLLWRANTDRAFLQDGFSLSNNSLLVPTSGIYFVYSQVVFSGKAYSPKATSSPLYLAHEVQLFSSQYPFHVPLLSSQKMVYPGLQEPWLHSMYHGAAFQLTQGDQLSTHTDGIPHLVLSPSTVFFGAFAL
TEST METHOD NOTES: phage ELISA
QUANTITY KIND: binding result

1. I068F03 (scFv) scFv: EVQLVQSGADVKKPGASVKVSCKASHYPFTTYGVSWVRQAPGQGLEWMGWISNYNGHTRYAPKFQGRVTLTTDTLTNTAFMELKSLTSDDTAIYYCARAGNEYGHTERPADYWGKGTMVTVSSGGGGSGGGGSGGGGSAQAVLTQPSSVSGAPGQRVTISCTGSSSNIGAGYDVHWYQQLPGTTPKLLISRNNNRPPGVPDRFSGSKSGTSASLAITGLQAEDEADYYCQSYDTTLRGWVFGGGTKVTVLG    no binding
2. I031G08 (scFv) scFv: QVQLVQSGAEVKKPGSSVKVSCRASGGSFIDDSINWLRQAPGQGLEWVGGTIPLANRANYAQKFRDRATITADELTATVFLELTSLRSDDTALYYCARSSPPKWYDALTGHSSYHSAMDVWGRGTLVTVSSGGGGSGGGGSGGGGSAQSVLTQPPSASGTPGQRVTISCSGTNSNIGGNTVNWYQQLPGTAPRLLIYSNNQRPSGVPDRFSGSKSGTSASLAISGLQSEDEADYYCAARDDRLNAHVVFGGGTKVTVLG    no binding
